# assay-overview: Tissue distribution of radioactivity in mice
# Format: in vivo, mouse
# condition: mouse small intestine, 60 min; mean of three mice, range 1.7-3.4; read-out: Tissue distribution, % Dose/g
value-type: tissue uptake at 1 h

1) CN1CN(c2ccccc2)C2(CCN(CCCC(=O)c3ccc([18F])cc3)CC2)C1=O [[^18 F]-N-methylspiroperidol]	2.5 %ID/g

---

# assay-overview: Baboon plasma analyses (total plasma radioactivity clearance and unchanged radioligand)
# condition: baboon, plasma, iv, % [^18 F]-N-Methylspiroperidol in Plasma, baboon plasma, 30 min after injection
value-type: remaining at 0.5 h

1) CN1CN(c2ccccc2)C2(CCN(CCCC(=O)c3ccc([18F])cc3)CC2)C1=O [[^18 F]-N-methylspiroperidol]	18%

Ref: patent USH1209H
